All figures here come from patent US8557833B2.

MEASURED_ON: Aurora-1 (Aurora B) (Homo sapiens, UniProt Q96GD4)
Sequence (Q96GD4 whole entry): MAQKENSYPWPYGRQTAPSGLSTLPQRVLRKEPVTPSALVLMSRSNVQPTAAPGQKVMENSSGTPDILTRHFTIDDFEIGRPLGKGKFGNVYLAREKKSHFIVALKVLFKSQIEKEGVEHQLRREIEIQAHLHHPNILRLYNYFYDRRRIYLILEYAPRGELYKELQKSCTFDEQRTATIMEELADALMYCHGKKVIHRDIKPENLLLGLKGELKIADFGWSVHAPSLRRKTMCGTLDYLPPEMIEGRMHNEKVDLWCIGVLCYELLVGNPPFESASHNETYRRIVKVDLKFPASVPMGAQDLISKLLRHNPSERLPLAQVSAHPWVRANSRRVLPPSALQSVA
ASSAY_EXPLANATION: Aurora-1 (Aurora B) inhibition assay (radiometric)
Format: biochemical
MEASUREMENT_PARAMETERS: 800 μM ATP, Kemptide, 25° C.; read-out: Aurora B Ki
REPORTED_PROPERTY: Ki (nM)
The reply should be a number in nM, with the unit left off.

>  <MOLECULE>
Cc1cc(Nc2cc(N3CCC3)nc(Sc3ccc(NC(=O)c4ccccc4Cl)nc3)n2)[nH]n1 [Compound I-24]

>  <READOUT_NUMBER>
18

$$$$
>  <MOLECULE>
Cc1cc(Nc2cc(N3CCC3)nc(Sc3ccc(NC(=O)c4ccccc4C(F)(F)F)cc3)n2)[nH]n1 [Compound I-14]

>  <READOUT_NUMBER>
4.5

$$$$
>  <MOLECULE>
Cc1cc(Nc2cc(N3CCC3)nc(Sc3ccc(NC(=O)c4c(F)cccc4F)cc3)n2)[nH]n1 [Compound I-2]

>  <READOUT_NUMBER>
6.5

$$$$
>  <MOLECULE>
Cc1cc(Nc2cc(N3CCC3)nc(Sc3ccc(NC(=O)c4ccccc4OC(F)(F)F)cc3)n2)[nH]n1 [Compound I-8]

>  <READOUT_NUMBER>
11

$$$$
>  <MOLECULE>
Cc1cc(Nc2cc(N3CCC3)nc(Sc3ccc(NC(=O)c4ccccc4C(F)F)cc3)n2)[nH]n1 [Compound I-19]

>  <READOUT_NUMBER>
19

$$$$
>  <MOLECULE>
CSc1ccccc1C(=O)Nc1ccc(Sc2nc(Nc3cc(C)[nH]n3)cc(N3CCC3)n2)cc1 [Compound I-23]

>  <READOUT_NUMBER>
6

$$$$

Problem: Returns the measured Ki for the input molecule. Input: Cc1cc(Nc2cc(N3CCC3)nc(Sc3ccc(NC(=O)c4c(Cl)cccc4Cl)cc3)n2)n[nH]1 [Compound I-11]
Result: 7

Problem: Let us now turn to Cc1cc(Nc2cc(N3CCC3)nc(Sc3ccc(NC(=O)c4ccccc4F)cc3)n2)[nH]n1 [Compound I-3]
Result: 10

* * *

Reported Ki values follow for various compounds
MEASURED_ON: Aurora-2 (Aurora A) (Homo sapiens, UniProt O14965)
Sequence (O14965 whole entry): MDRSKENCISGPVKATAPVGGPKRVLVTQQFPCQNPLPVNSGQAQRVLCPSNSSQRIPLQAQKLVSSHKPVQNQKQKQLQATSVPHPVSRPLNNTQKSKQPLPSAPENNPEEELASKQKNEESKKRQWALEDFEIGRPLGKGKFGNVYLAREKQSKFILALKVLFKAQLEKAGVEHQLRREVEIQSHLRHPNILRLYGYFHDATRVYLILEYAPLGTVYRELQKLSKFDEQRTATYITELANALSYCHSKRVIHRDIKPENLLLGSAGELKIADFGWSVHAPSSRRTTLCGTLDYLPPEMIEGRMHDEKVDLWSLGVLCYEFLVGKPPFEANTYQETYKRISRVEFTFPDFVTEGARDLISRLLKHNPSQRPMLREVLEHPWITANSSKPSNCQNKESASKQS
ASSAY_EXPLANATION: Aurora-2 (Aurora A) inhibition assay, coupled enzyme
Format: biochemical
The reply should be a number in nM, with the unit left off.

>  <SMILES_STR>
Cc1cccc(C(=O)Nc2ccc(Sc3nc(Nc4cc(C)[nH]n4)cc(N4CCC4)n3)cc2)c1

>  <Ki [nM]>
2.5

$$$$
>  <SMILES_STR>
Cc1cc(Nc2cc(N3CCC3)nc(Sc3ccc(NC(=O)c4cccc(Cl)c4F)cc3)n2)n[nH]1

>  <Ki [nM]>
0.76

$$$$
>  <SMILES_STR>
COc1ccccc1C(=O)Nc1ccc(Sc2nc(Nc3cc(C)[nH]n3)cc(N3CCC3)n2)cc1

>  <Ki [nM]>
3

$$$$
>  <SMILES_STR>
Cc1cc(Nc2cc(N3CCC3)nc(Sc3ccc(NC(=O)c4c(Cl)cccc4Cl)cc3)n2)n[nH]1

>  <Ki [nM]>
0.71

$$$$
>  <SMILES_STR>
CSc1ccccc1C(=O)Nc1ccc(Sc2nc(Nc3cc(C)[nH]n3)cc(N3CCC3)n2)cc1

>  <Ki [nM]>
1.4

$$$$
>  <SMILES_STR>
Cc1cc(Nc2cc(N3CCC3)nc(Sc3ccc(NC(=O)c4cccc(C(F)(F)F)c4F)cc3)n2)n[nH]1

>  <Ki [nM]>
0.35

$$$$

Shifting focus to the compound that follows.
Problem: Returns the measured Ki for the input compound. Input: Cc1cc(Nc2cc(N3CCC3)nc(Sc3ccc(NC(=O)c4ccccc4OC(F)(F)F)cc3)n2)[nH]n1
Result: 0.67

* * *

Reported pKi values follow for various compounds
MEASURED_ON: FLT-3 (Homo sapiens)
Sequence (P36888 27-993): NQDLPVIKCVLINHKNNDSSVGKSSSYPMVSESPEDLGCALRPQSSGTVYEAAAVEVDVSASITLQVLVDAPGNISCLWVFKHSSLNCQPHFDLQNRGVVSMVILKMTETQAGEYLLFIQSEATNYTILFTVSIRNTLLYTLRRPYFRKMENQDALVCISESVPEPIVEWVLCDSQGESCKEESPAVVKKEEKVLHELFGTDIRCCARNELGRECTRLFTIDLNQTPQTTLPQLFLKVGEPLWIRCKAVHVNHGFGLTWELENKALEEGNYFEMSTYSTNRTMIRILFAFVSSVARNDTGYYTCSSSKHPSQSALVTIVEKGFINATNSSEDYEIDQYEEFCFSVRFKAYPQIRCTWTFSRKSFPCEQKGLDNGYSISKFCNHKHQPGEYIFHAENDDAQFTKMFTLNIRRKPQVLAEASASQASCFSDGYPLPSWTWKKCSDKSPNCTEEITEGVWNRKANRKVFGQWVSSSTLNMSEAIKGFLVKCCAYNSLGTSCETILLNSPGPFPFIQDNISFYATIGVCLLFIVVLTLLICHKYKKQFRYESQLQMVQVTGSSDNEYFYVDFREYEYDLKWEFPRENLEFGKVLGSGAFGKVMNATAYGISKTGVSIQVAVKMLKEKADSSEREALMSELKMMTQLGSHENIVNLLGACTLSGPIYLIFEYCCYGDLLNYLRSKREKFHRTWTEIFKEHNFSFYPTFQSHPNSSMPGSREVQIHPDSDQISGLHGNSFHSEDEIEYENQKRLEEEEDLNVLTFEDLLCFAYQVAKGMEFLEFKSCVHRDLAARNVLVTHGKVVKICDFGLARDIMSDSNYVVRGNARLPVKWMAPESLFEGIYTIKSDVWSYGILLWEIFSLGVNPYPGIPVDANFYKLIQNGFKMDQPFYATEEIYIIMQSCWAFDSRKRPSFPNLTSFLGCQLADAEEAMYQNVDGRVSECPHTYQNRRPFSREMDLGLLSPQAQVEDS
ASSAY_EXPLANATION: FLT-3 inhibition assay, radiometric filter-binding
Type: biochemical
MEASUREMENT_PARAMETERS: 90 μM ATP, 0.5 mg/ml pE4Y, room temperature; read-out: FLT-3 Ki
Entry type: numeric. Quantity: pKi, the -log10 of concentration in molar units.

Example results:
>  <SMILES_STR>
Cc1cc(Nc2cc(N3CCC3)nc(Sc3ccc(NC(=O)c4ccccc4F)cc3)n2)[nH]n1

>  <MEASURED_ON>
FLT-3 (Homo sapiens)

>  <pKi>
6.66

$$$$
>  <SMILES_STR>
Cc1cc(Nc2cc(N3CCC3)nc(Sc3ccc(NC(=O)c4ccccc4C)cc3)n2)[nH]n1

>  <MEASURED_ON>
FLT-3 (Homo sapiens)

>  <pKi>
7.15

$$$$
>  <SMILES_STR>
Cc1cc(Nc2cc(N3CCC3)nc(Sc3ccc(NC(=O)c4cccc(F)c4F)cc3)n2)[nH]n1

>  <MEASURED_ON>
FLT-3 (Homo sapiens)

>  <pKi>
6.60

$$$$
>  <SMILES_STR>
Cc1cc(Nc2cc(N3CCC3)nc(Sc3ccc(NC(=O)c4ccccc4C(F)F)cc3)n2)[nH]n1

>  <MEASURED_ON>
FLT-3 (Homo sapiens)

>  <pKi>
6.80

$$$$
>  <SMILES_STR>
Cc1cc(Nc2cc(N3CCC3)nc(Sc3ccc(NC(=O)c4ccccc4Cl)cc3)n2)[nH]n1

>  <MEASURED_ON>
FLT-3 (Homo sapiens)

>  <pKi>
7.00

$$$$

Problem: Returns the measured pKi for the input compound. Input: Cc1cc(Nc2cc(N3CCC3)nc(Sc3ccc(NC(=O)c4c(F)cccc4F)cc3)n2)[nH]n1
Result: 6.74

Problem: Let us now turn to Cc1cc(Nc2cc(N3CCC3)nc(Sc3ccc(NC(=O)c4ccccc4C(F)(F)F)cc3)n2)[nH]n1
Result: 6.77

* * *

ASSAY_EXPLANATION: Microsomal stability assay
Assay type: in vitro ADME
MEASUREMENT_PARAMETERS: 60 min; 5 μM compound, 1 mg/mL liver microsome protein, 37° C.; species not given
REPORTED_PROPERTY: Microsomal Stability (% remaining after 60 min.) (%)
The reply should be a number in %, with the unit left off.

Example results:
>  <COMPOUND>
Cc1cc(Nc2cc(N3CCC3)nc(Sc3ccc(NC(=O)c4cccc(C(F)(F)F)c4F)cc3)n2)n[nH]1 [Compound I-13]

>  <READOUT_NUMBER>
74

$$$$
>  <COMPOUND>
Cc1cc(Nc2cc(N3CCC3)nc(Sc3ccc(NC(=O)c4cccc(Cl)c4F)cc3)n2)n[nH]1 [Compound I-15]

>  <READOUT_NUMBER>
84

$$$$
>  <COMPOUND>
COc1cccc(C(=O)Nc2ccc(Sc3nc(Nc4cc(C)n[nH]4)cc(N4CCC4)n3)cc2)c1 [Compound I-18]

>  <READOUT_NUMBER>
58

$$$$
>  <COMPOUND>
Cc1cc(Nc2cc(N3CCC3)nc(Sc3ccc(NC(=O)c4ccccc4Cl)cc3)n2)[nH]n1 [Compound I-1]

>  <READOUT_NUMBER>
79

$$$$
>  <COMPOUND>
Cc1cc(Nc2cc(N3CCC3)nc(Sc3ccc(NC(=O)c4cccc(F)c4F)cc3)n2)[nH]n1 [Compound I-7]

>  <READOUT_NUMBER>
69

$$$$
>  <COMPOUND>
Cc1cc(Nc2cc(N3CCC3)nc(Sc3ccc(NC(=O)c4ccccc4C)cc3)n2)[nH]n1 [Compound I-5]

>  <READOUT_NUMBER>
65

$$$$

Shifting focus to the compound that follows.
Problem: Returns the measured Microsomal Stability (% remaining after 60 min.) for the input compound. Input: Cc1cc(Nc2cc(N3CCC3)nc(Sc3ccc(NC(=O)c4cccc(Cl)c4Cl)cc3)n2)n[nH]1 [Compound I-9]
Result: 69
